- System: MDA-MB-435
- protocol.text: NCI tumour cell line growth inhibition, 48 h
Returns one of met or not met; met when TGI is >= 7 µM.

Illustrative cases are given below, each with its answer.
[[record]]
molecule = "CCc1nc(Cl)nc(Cl)c1Cl"
assigned_label = "not met"

[[record]]
molecule = "CCc1c(Cc2cc(C)cc(C)c2)n2c(nc1=O)SCC2CBr (stereo not given)"
assigned_label = "met"


Please find the next molecule below.
For this molecule, is measured TGI 7 µM or higher? O=C(c1ccccc1)c1sc2c(=O)c(C(=O)c3ccccc3)c(C(=O)c3ccccc3)sc2c(=O)c1C(=O)c1ccccc1
met

---

- Tested on: SF-268 CNS
- protocol.text: NCI tumour cell line growth inhibition, 48 h
measurement.type: TGI

[[record]]
molecule = "O=[N+]([O-])c1ccc(Sc2c3ccccc3nc3ccccc23)nc1"
test_result = "19 µM"

[[record]]
molecule = "O=C(c1ccccc1)c1sc2c(=O)c(C(=O)c3ccccc3)c(C(=O)c3ccccc3)sc2c(=O)c1C(=O)c1ccccc1"
test_result = "> 100 µM"

[[record]]
molecule = "C=C1C(=O)O[C@H]2[C@H]1CC(=O)/C(C)=C/CC[C@@]1(C)O[C@@H]21"
test_result = "13.4 µM"

[[record]]
molecule = "O=C([O-])c1ccc(C(=O)[O-])cc1.O=C([O-])c1ccc(C(=O)[O-])cc1.[Mo+2].[Mo+2]"
test_result = "> 100 µM"

[[record]]
molecule = "Cc1ccc2[nH]c3c(ncc4[nH]c5ccccc5c43)c2c1"
test_result = "32.4 µM"

[[record]]
molecule = "CCCCC(=O)Oc1ccc2c(C)cc(=O)oc2c1"
test_result = "> 100 µM"

[[record]]
molecule = "CCCCn1sc(=O)n(Cc2ccc(CNC(=O)OCc3ccc4c(Br)cc(Br)c(O)c4n3)cc2)c1=O"
test_result = "> 100 µM"

[[record]]
molecule = "CCOC(=O)c1ccc(-n2c(SCC)nc3sc(C)c(C)c3c2=O)cc1"
test_result = "> 100 µM"

[[record]]
molecule = "Nc1nc(Cl)c2nnn(CC3CCC(CO)C3)c2n1 (stereo not given)"
test_result = "> 100 µM"


Switching to the query record.
Measured TGI, NC(Cc1ccccc1)(C(=O)O)C(=O)O : > 100 µM

---

- Test system: DMS 273 small cell lung
- protocol.text: NCI tumour cell line growth inhibition, 48 h
measurement.type: TGI

Worked cases, answers included:
[[record]]
compound = "OC(c1ccccn1)C1CNc2ccccc21 (stereo not given)"
test_result = "> 100 µM"

[[record]]
compound = "CC(=O)Nc1ccc(C(=O)NN2C(=O)C(Cl)C2c2ccccc2O)cc1 (stereo not given)"
test_result = "> 100 µM"

[[record]]
compound = "CCCCS(=O)(=O)Nc1ccc(Nc2c3ccccc3nc3ccccc23)c(OC)c1"
test_result = "3.37 µM"


So, CC(C)C(/C=C/c1ccc(Br)cc1)=N\NC(N)=O ? Its TGI was > 100 µM

Field TGI (entry Cn1c2cc(O)cc(O)c2c(=O)c2c([N+](=O)[O-])cccc21 ) reads > 100 µM

---

- Test system: NCI-H522 lung
- protocol.text: NCI tumour cell line growth inhibition, 48 h
measurement.type: TGI (µM)
# unit: µM | format: bare number

[[record]]
structure_string = "O=C(/C=C/c1ccc(O)c(O)c1O)OCCc1ccccc1"
measurement_type = "TGI"
test_result = 54.9


// field: TGI; key: O=C(OCc1ccc2c(Cl)cc(Cl)c(O)c2n1)c1cc2ccccc2[nH]1 ; value = 1.15

So for O=C(CCN1CCOCC1)Nc1ccc2sc3ccccc3c(=O)c2n1 , the logged TGI turned out to be 45.9

So for C=C1C(=O)O[C@H]2[C@H]1CC/C(COC(=O)c1ccc(C#N)cc1)=C\CC[C@@]1(C)O[C@@H]21 , the logged TGI turned out to be 3.35

---

- Tested on: NCI-H226 lung
- protocol.text: NCI tumour cell line growth inhibition, 48 h
Reported TGI by item:

Consider the following illustrative entries.
[[record]]
compound = "COc1ccc(/C(=N/NC(N)=O)C(c2ccc(OC)cc2)C2C(=O)Oc3ccccc32)cc1 (stereo not drawn)"
assayed_system = "NCI-H226 lung"
measurement_type = "TGI"
test_result = "> 100 µM"

[[record]]
compound = "CCS(=O)(=O)CCn1cnc2c1c(=O)n(C)c(=O)n2C"
assayed_system = "NCI-H226 lung"
measurement_type = "TGI"
test_result = "> 100 µM"

[[record]]
compound = "Nc1nc(Cl)c2nnn(CC3CCC(CO)C3)c2n1 (stereo not drawn)"
assayed_system = "NCI-H226 lung"
measurement_type = "TGI"
test_result = "> 100 µM"

[[record]]
compound = "N#CCCN(CCN(C(=O)Nc1ccccc1)c1ccccc1)C(=O)Nc1ccccc1"
assayed_system = "NCI-H226 lung"
measurement_type = "TGI"
test_result = "> 100 µM"

[[record]]
compound = "CCOC(=O)/C=C(/C(=O)OCC)n1ccc(=O)n(/C(=C/C(=O)OCC)C(=O)OCC)c1=O"
assayed_system = "NCI-H226 lung"
measurement_type = "TGI"
test_result = "18.9 µM"


What the record says about COc1ccc(-c2cc(-c3cc(OC)c(OC)c(OC)c3)c(C#N)c(N3CCOCC3)n2)cc1O : TGI is > 100 µM

Record summary for O=c1cc(-c2ccc(Cl)cc2)oc2cc(OCCCOc3ccc4c(=O)cc(-c5ccc(Cl)cc5)oc4c3)ccc12 : reported TGI = > 100 µM

Short answer for COC(=O)c1ccc(Cc2ccc(C(=O)OC)o2)o1 : TGI was > 378 µM

Lookup result for COC(=O)[C@@H]1C[C@H]([Se]c2ccccc2)CN1C(=O)OCc1ccccc1 ; measured TGI: > 100 µM

Data point: O=C(O)C1(Cc2cccc(Nc3nccs3)n2)CCC(Oc2cccc(Cl)c2F)CC1 (stereo not drawn) ; TGI = 39.6 µM

TGI in this record for COc1ccc(-c2cc(=O)c3c(O)cc(C)cc3o2)cc1OC : > 100 µM

Record CCCCC(=O)Oc1ccc2c(C)cc(=O)oc2c1 , field TGI: > 100 µM

---

- System: COLO 205 colon
- protocol.text: NCI tumour cell line growth inhibition, 48 h; in the data active means GI50 below about 0.43 µM; inactive means the rest
The reply should be one of these categories: y for active, n for inactive

[[record]]
compound = "COc1ccc(-c2ccc(/C=N/n3c(C)nn(CN4CCN(C)CC4)c3=S)o2)c([N+](=O)[O-])c1"
assigned_label = "n"

[[record]]
compound = "O=C(CCCCCCSc1nc(-c2ccc(Cl)cc2)cc(-c2ccc(Cl)cc2)n1)NO"
assigned_label = "n"

[[record]]
compound = "C[C@H]1C(Oc2ccc(O)cc2)OC2OC3(C)CCC4[C@H](C)CCC1C24OO3 (some centres undefined)"
assigned_label = "n"

[[record]]
compound = "COc1cnc2c(c1)C(=O)c1c-2n(CCCN2CCCC2)c(=O)c2cc(F)ccc12"
assigned_label = "y"


Short answer needed: outcome of this test for CNCCCNc1nc2ccccc2c2c(=O)c3cc(Cl)ccc3sc12 ?
n

Outcome logged for Nc1nc(N)c2nc(CNc3ccc(C(=O)NC(CCCNC(=O)c4ccccc4C(=O)O)C(=O)O)cc3)cnc2n1 (centres undefined) in this assay:
y

For this compound, state the assay outcome: CS(=O)(=O)CCNCc1ccc(-c2ccc3ncnc(Nc4ccc(OCc5ccccc5)c(Cl)c4)c3c2)o1
n

Outcome logged for CCC(C(=O)[O-])C(=O)[O-].CCC(C(=O)[O-])C(=O)[O-].N.N.NCCCCCCN.[Pt+4].[Pt+4] in this assay:
n

Could you check what this test reported for COc1ccc2c(c1)[n+](=O)c(C(=O)/C=C/c1cc(OC)c(OC)c(OC)c1)c(C)n2[O-] ?
n

---

- Test system: SK-OV-3 ovarian
- protocol.text: NCI tumour cell line growth inhibition, 48 h; in the data active means GI50 below about 0.43 µM; inactive means the rest
Answer with one of the outcomes active, inactive

What outcome does the record of this test show for CNCCCNc1nc2ccccc2c2c(=O)c3cc(Cl)ccc3sc12 ?
inactive

Outcome logged for COc1cnc2c(c1)C(=O)c1c-2n(CCCN2CCCC2)c(=O)c2cc(F)ccc12 in this assay:
active

# fetch the recorded call for COc1ccc(-c2cc(-c3cc(OC)c(OC)c(OC)c3)c(C#N)c(N3CCOCC3)n2)cc1O here
inactive

Recorded test call requested for CCCCC#CC#Cc1cccc(=O)o1
inactive

Hi, do you know how O=C([O-])c1ccc(C(=O)[O-])cc1.O=C([O-])c1ccc(C(=O)[O-])cc1.[Mo+2].[Mo+2] came out in this test?
inactive

---

- Tested on: NCI-H522 lung
- protocol.text: NCI tumour cell line growth inhibition, 48 h; in the data active = GI50 below about 0.43 µM; inactive = the rest
Write down the outcome that applies. Available outcomes: active, inactive

For COc1ccc(Cn2cc3c(c2-c2cc(OC)c(OC)c(OC)c2)CCc2cnoc2-3)cc1[N+](=O)[O-] , what call appears in the results of this test?
active

Could you kindly confirm the outcome this assay logged for CCOC(=O)c1cc2c(n1Cc1ccccc1)-c1oncc1CC2 ?
inactive

What outcome does the record of this test show for Cc1ccc(S(=O)(=O)Cc2nc(-c3ccc(C(=O)NCc4cccnc4)cc3)oc2C)cc1 ?
inactive

Outcome? O=C1c2c(O)cc(O)cc2OC(c2ccc(O)cc2O)C1O (stereo not given)
inactive

Answer briefly: the call reported for C=C1C(=O)O[C@H]2[C@H]1CC/C(COC(=O)c1ccc(C#N)cc1)=C\CC[C@@]1(C)O[C@@H]21 in this assay.
inactive

Assay outcome for O=C(OCc1ccc2c(Cl)cc(Cl)c(O)c2n1)c1cc2ccccc2[nH]1 : what was it?
active

What outcome does the record of this test show for Nc1c(C(=O)Nc2ccccc2F)sc2nc3c(cc12)C(=O)CCC3 ?
inactive

Status in this test for CCCSC1=NC2C(N(CC)C(=O)N2CC)N1/N=C/C=C/c1ccccc1[N+](=O)[O-] (stereo not given) ?
inactive

What did the test return for Nc1nc(N)c2nc(CNc3ccc(C(=O)NC(CCCNC(=O)c4ccccc4C(=O)O)C(=O)O)cc3)cnc2n1 (stereo not given) ?
active

Data provenance is PubChem BioAssay (NCI).
